Ref: patent US8209131B2

Consider the following molecules and their measured Conc needed for 50% growth, average readings.
System: TF1.8 cells
Test: TF1.8 bioassay of IL-4 mutants (support of proliferation)
Type: cell-based, human
Details: IL-4 wt and mutants, TF1.8 cells
Metric: Conc needed for 50% growth, average (ng/mL)

1. K77A: IL-4 mutant, baculovirus expressed (protein) HKCDITLQEIIKTLNSLTEQKTLCTELTVTDIFAASKNTTEKETFCRAATVLRQFYSHHEKDTRCLGATAQQFHRHAQLIRFLKRLDRNLWGLAGLNSCPVKEANQSTLENFLERLKTIMREKYSKCSS :: 1.55
2. K77A/R53A: IL-4 double mutant (protein) HKCDITLQEIIKTLNSLTEQKTLCTELTVTDIFAASKNTTEKETFCRAATVLAQFYSHHEKDTRCLGATAQQFHRHAQLIRFLKRLDRNLWGLAGLNSCPVKEANQSTLENFLERLKTIMREKYSKCSS :: 11.3
3. K84A: IL-4 mutant, baculovirus expressed (protein) HKCDITLQEIIKTLNSLTEQKTLCTELTVTDIFAASKNTTEKETFCRAATVLRQFYSHHEKDTRCLGATAQQFHRHKQLIRFLARLDRNLWGLAGLNSCPVKEANQSTLENFLERLKTIMREKYSKCSS :: 2.95
4. R121A: IL-4 mutant, baculovirus expressed (protein) HKCDITLQEIIKTLNSLTEQKTLCTELTVTDIFAASKNTTEKETFCRAATVLRQFYSHHEKDTRCLGATAQQFHRHKQLIRFLKRLDRNLWGLAGLNSCPVKEANQSTLENFLERLKTIMAEKYSKCSS :: 1.01
5. K42A: IL-4 mutant, baculovirus expressed (protein) HKCDITLQEIIKTLNSLTEQKTLCTELTVTDIFAASKNTTEAETFCRAATVLRQFYSHHEKDTRCLGATAQQFHRHKQLIRFLKRLDRNLWGLAGLNSCPVKEANQSTLENFLERLKTIMREKYSKCSS :: 0.67
6. E9A: IL-4 mutant, baculovirus expressed (protein) HKCDITLQAIIKTLNSLTEQKTLCTELTVTDIFAASKNTTEKETFCRAATVLRQFYSHHEKDTRCLGATAQQFHRHKQLIRFLKRLDRNLWGLAGLNSCPVKEANQSTLENFLERLKTIMREKYSKCSS :: 76.1
